Entry source: patent US20210040184A1

For each of the binders below, state its fold (KD vs average of 4 runs of L1A2).
targetUnderTest: Clade B BaL gp120 protein (HIV-1 Clade B, BaL)
testName: BLI (Octet), IgG on anti-hIgG Fc sensor, gp120 analyte, 1:1 fit
Quick note: give the figure in fold, leave out the unit.

Asked: For the binder shown here, CysCA (antibody, V domains shown) VH: ADLVQSGAVVKKPGDSVRISCEAQGYRFPDYIIHWIRRAPGQGPEWMGWMNPMGGQVNIPWKFQGRVSMTRDTSIETAFLDLRGLKSDDTAVYYCVRDRSNGSGKRFESSNWFLDLWGRGTAVTIQS VL: QSALTQPRSVSASPGQSVTISCTGTHNLVSWAQHQPGRAPKLLIYDFNKRPSGVPDRFSGSGSGGTASLTITGLQDDDDAEYFCWAYEAFGGGTKLTVL , give the reported fold (KD vs average of 4 runs of L1A2).
Given back: 2.03

Asked: For the binder shown here, NglycoND (antibody, V domains shown) VH: ADLVQSGAVVKKPGDSVRISCEAQGYRFPDYIIHWIRRAPGQGPEWMGWMNPMGGQVNIPWKFQGRVSMTRDTSIETAFLDLRGLKSDDTAVYYCVRDRSDGSGKRFESSNWFLDLWGRGTAVTIQS VL: QSALTQPRSVSASPGQSVTISCTGTHNLVSWCQHQPGRAPKLLIYDFNKRPSGVPDRFSGSGSGGTASLTITGLQDDDDAEYFCWAYEAFGGGTKLTVL , give the reported fold (KD vs average of 4 runs of L1A2).
Given back: 34.5
